This collection of values is drawn from the NIST ThermoML archive (doi:10.1016/j.jct.2017.03.004).

protocol_description: activity coefficient (dimensionless); of the first substance listed, at infinite dilution; xn = mol fraction of the nth substance listed
condition: 338.15 K; 101.33 kPa; Liquid; Chromatography; x1 = 0
Label scheme, based on activity coefficient: lower segment: < 5; middle segment: ≥ 5 and < 30; upper segment: ≥ 30

> print(dat)
                                    compound        category
 1  CCC(C)O (centres undefined) [butan-2-ol] + N#C[N-]C#N.OCCC[n+]1ccccc1   lower segment
 2  C=Cc1ccccc1 [styrene] + N#C[N-]C#N.OCCC[n+]1ccccc1  middle segment
 3  C#CCCCCC [1-heptyne] + N#C[N-]C#N.OCCC[n+]1ccccc1   upper segment
 4  CCC(=O)CC [pentan-3-one] + N#C[N-]C#N.OCCC[n+]1ccccc1  middle segment
 5  C1CCCCCC1 [cycloheptane] + N#C[N-]C#N.OCCC[n+]1ccccc1   upper segment
 6  Cc1cccc(C)c1 [1,3-dimethylbenzene] + N#C[N-]C#N.OCCC[n+]1ccccc1  middle segment
 7  CCCC(=O)OC [methyl butanoate] + N#C[N-]C#N.OCCC[n+]1ccccc1  middle segment
 8  c1ccccc1 [benzene] + N#C[N-]C#N.OCCC[n+]1ccccc1  middle segment
 9  CC(C)(C)O [2-methylpropan-2-ol] + N#C[N-]C#N.OCCC[n+]1ccccc1   lower segment
10  C#CCCC [1-pentyne] + N#C[N-]C#N.OCCC[n+]1ccccc1  middle segment
11  C#CCCCCCC [1-octyne] + N#C[N-]C#N.OCCC[n+]1ccccc1   upper segment
12  C=CCCCCCC [oct-1-ene] + N#C[N-]C#N.OCCC[n+]1ccccc1   upper segment
13  C1CCCCC1 [cyclohexane] + N#C[N-]C#N.OCCC[n+]1ccccc1   upper segment
14  CCC(=O)OC [methyl propanoate] + N#C[N-]C#N.OCCC[n+]1ccccc1  middle segment
15  CCc1ccccc1 [ethylbenzene] + N#C[N-]C#N.OCCC[n+]1ccccc1  middle segment
16  CC(C)=O [acetone] + N#C[N-]C#N.OCCC[n+]1ccccc1   lower segment
17  CCOC(C)(C)C [2-ethoxy-2-methylpropane] + N#C[N-]C#N.OCCC[n+]1ccccc1   upper segment
18  CC(C)O [propan-2-ol] + N#C[N-]C#N.OCCC[n+]1ccccc1   lower segment
19  CCCOCCC [dipropyl ether] + N#C[N-]C#N.OCCC[n+]1ccccc1   upper segment
20  CCCCCCCCCC [decane] + N#C[N-]C#N.OCCC[n+]1ccccc1   upper segment
21  C1COCCO1 [1,4-dioxane] + N#C[N-]C#N.OCCC[n+]1ccccc1   lower segment
22  CCCC(C)=O [pentan-2-one] + N#C[N-]C#N.OCCC[n+]1ccccc1  middle segment
23  CCCCCO [pentan-1-ol] + N#C[N-]C#N.OCCC[n+]1ccccc1   lower segment
24  Cc1ccccc1 [toluene] + N#C[N-]C#N.OCCC[n+]1ccccc1  middle segment
25  C=CCCCC [hex-1-ene] + N#C[N-]C#N.OCCC[n+]1ccccc1   upper segment
26  CCO [ethanol] + N#C[N-]C#N.OCCC[n+]1ccccc1   lower segment
27  CC#N [acetonitrile] + N#C[N-]C#N.OCCC[n+]1ccccc1   lower segment
28  c1ccsc1 [thiophene] + N#C[N-]C#N.OCCC[n+]1ccccc1   lower segment
29  CCCCCCCCC [nonane] + N#C[N-]C#N.OCCC[n+]1ccccc1   upper segment
30  CCC[N+](=O)[O-] [1-nitropropane] + N#C[N-]C#N.OCCC[n+]1ccccc1   lower segment
31  C#CCCCC [1-hexyne] + N#C[N-]C#N.OCCC[n+]1ccccc1  middle segment
32  c1ccncc1 [pyridine] + N#C[N-]C#N.OCCC[n+]1ccccc1   lower segment
33  CCCCO [butan-1-ol] + N#C[N-]C#N.OCCC[n+]1ccccc1   lower segment
34  COC(C)=O [methyl ethanoate] + N#C[N-]C#N.OCCC[n+]1ccccc1   lower segment
35  CCCc1ccccc1 [propylbenzene] + N#C[N-]C#N.OCCC[n+]1ccccc1   upper segment
36  C1CCCCCCC1 [cyclooctane] + N#C[N-]C#N.OCCC[n+]1ccccc1   upper segment
37  CCOC(C)=O [ethyl acetate] + N#C[N-]C#N.OCCC[n+]1ccccc1  middle segment
38  CC(C)OC(C)C [diisopropyl ether] + N#C[N-]C#N.OCCC[n+]1ccccc1   upper segment

* * *

protocol_description: activity coefficient (dimensionless); of the first substance listed, at infinite dilution; xn = mol fraction of the nth substance listed
condition: 368.15 K; 101.33 kPa; Liquid; Chromatography; x1 = 0
activity coefficient less than 4 is yes (1); activity coefficient greater than or equal to 4 is no (0).

> print(dat)
                                    molecule  category
 1  CCCc1ccccc1 [propylbenzene] + N#C[N-]C#N.OCCC[n+]1ccccc1    no (0)
 2  CC(C)OC(C)C [diisopropyl ether] + N#C[N-]C#N.OCCC[n+]1ccccc1    no (0)
 3  c1ccncc1 [pyridine] + N#C[N-]C#N.OCCC[n+]1ccccc1   yes (1)
 4  C1CCOC1 [tetrahydrofuran] + N#C[N-]C#N.OCCC[n+]1ccccc1   yes (1)
 5  CCC(=O)CC [pentan-3-one] + N#C[N-]C#N.OCCC[n+]1ccccc1    no (0)
 6  CC(C)c1ccccc1 [isopropylbenzene] + N#C[N-]C#N.OCCC[n+]1ccccc1    no (0)
 7  Cc1cccc(C)c1 [1,3-dimethylbenzene] + N#C[N-]C#N.OCCC[n+]1ccccc1    no (0)
 8  CO [methanol] + N#C[N-]C#N.OCCC[n+]1ccccc1   yes (1)
 9  CC(C)CO [2-methyl-1-propanol] + N#C[N-]C#N.OCCC[n+]1ccccc1   yes (1)
10  CCC(=O)OC [methyl propanoate] + N#C[N-]C#N.OCCC[n+]1ccccc1    no (0)
11  CC#N [acetonitrile] + N#C[N-]C#N.OCCC[n+]1ccccc1   yes (1)
12  CCC[N+](=O)[O-] [1-nitropropane] + N#C[N-]C#N.OCCC[n+]1ccccc1   yes (1)
13  COC(C)(C)C [2-methoxy-2-methylpropane] + N#C[N-]C#N.OCCC[n+]1ccccc1    no (0)
14  CCCCCO [pentan-1-ol] + N#C[N-]C#N.OCCC[n+]1ccccc1    no (0)
15  CCOCC [diethyl ether] + N#C[N-]C#N.OCCC[n+]1ccccc1    no (0)
16  CCCOCCC [dipropyl ether] + N#C[N-]C#N.OCCC[n+]1ccccc1    no (0)
17  CCC(C)O (centres undefined) [butan-2-ol] + N#C[N-]C#N.OCCC[n+]1ccccc1   yes (1)
18  CCC(C)(C)OC [2-methoxy-2-methylbutane] + N#C[N-]C#N.OCCC[n+]1ccccc1    no (0)
19  CCCC(C)=O [pentan-2-one] + N#C[N-]C#N.OCCC[n+]1ccccc1    no (0)

* * *

protocol_description: activity coefficient (dimensionless); of the first substance listed, at infinite dilution; xn = mol fraction of the nth substance listed
condition: 328.15 K; 101.33 kPa; Liquid; Chromatography; x1 = 0
recorded_metric: activity coefficient

> print(dat)
                                   compound  meas.value
1  Cc1ccccc1 [toluene] + N#C[N-]C#N.OCCC[n+]1ccccc1        8.72
2  CC(C)c1ccccc1 [isopropylbenzene] + N#C[N-]C#N.OCCC[n+]1ccccc1        29.7
3  CC(C)CC(C)(C)C [2,2,4-trimethylpentane] + N#C[N-]C#N.OCCC[n+]1ccccc1         579
4  COC(C)(C)C [2-methoxy-2-methylpropane] + N#C[N-]C#N.OCCC[n+]1ccccc1        25.5
5  CCOC(C)(C)C [2-ethoxy-2-methylpropane] + N#C[N-]C#N.OCCC[n+]1ccccc1        83.9
6  CCC(C)CC [3-methylpentane] + N#C[N-]C#N.OCCC[n+]1ccccc1         272
7  CO [methanol] + N#C[N-]C#N.OCCC[n+]1ccccc1       0.692
8  CCC(C)(C)OC [2-methoxy-2-methylbutane] + N#C[N-]C#N.OCCC[n+]1ccccc1          42
9  CCCC=O [butanal] + N#C[N-]C#N.OCCC[n+]1ccccc1        4.21

* * *

protocol_description: activity coefficient (dimensionless); of the first substance listed, at infinite dilution; xn = mol fraction of the nth substance listed
condition: 328.15 K; 101.33 kPa; Liquid; Chromatography; x1 = 0
recorded_metric: activity coefficient

> print(dat)
                                    compound  meas.value
 1  C1CCCCCC1 [cycloheptane] + N#C[N-]C#N.OCCC[n+]1ccccc1         130
 2  CC(C)(C)O [2-methylpropan-2-ol] + N#C[N-]C#N.OCCC[n+]1ccccc1        3.08
 3  Cc1cccc(C)c1 [1,3-dimethylbenzene] + N#C[N-]C#N.OCCC[n+]1ccccc1        14.8
 4  CCCCCCCCCC [decane] + N#C[N-]C#N.OCCC[n+]1ccccc1        1580
 5  c1ccsc1 [thiophene] + N#C[N-]C#N.OCCC[n+]1ccccc1        2.71
 6  CCc1ccccc1 [ethylbenzene] + N#C[N-]C#N.OCCC[n+]1ccccc1        16.4
 7  C=CCCCCC [1-heptene] + N#C[N-]C#N.OCCC[n+]1ccccc1         190
 8  C#CCCCC [1-hexyne] + N#C[N-]C#N.OCCC[n+]1ccccc1        22.5
 9  C=C(C)c1ccccc1 [(1-methylethenyl)benzene] + N#C[N-]C#N.OCCC[n+]1ccccc1          12
10  CC(C)CO [2-methyl-1-propanol] + N#C[N-]C#N.OCCC[n+]1ccccc1        3.26
11  CCCCO [butan-1-ol] + N#C[N-]C#N.OCCC[n+]1ccccc1        3.23
12  C1=CCCCC1 [cyclohexene] + N#C[N-]C#N.OCCC[n+]1ccccc1        35.8
13  CCCCCCCC [octane] + N#C[N-]C#N.OCCC[n+]1ccccc1         710
